Target: T1, Anti-PSMA Fab (SEQ ID NOs: 19, 20)
T1 construct: In the phage ELISA the Fab was biotinylated and captured on neutravidin coated plates; also called 006 PSMA Fab
Assay: phage binding ELISA on captured PSMA Fab, wells pre-incubated with PSMA antigen as competitor
Where no end group is shown, it is not given here.
ATTRIBUTE MEASURED: Anti-PSMA Fab signal in the presence of PSMA
Give the figure only, with no unit attached.

// below: answered binders
INMWCIPAWMCQNT (Clonal phage of the Peptide-180 library) [Phage-2100]	0.128
VVHWCIPSWMCTEN (Clonal phage of the Peptide-180 library) [Phage-2094]	0.0941

Supply recorded Anti-PSMA Fab signal in the presence of PSMA for VEKWCIPTWMCQAM (cysteine pairing not given here; also: fused to phage pIII, pIII sequence and linker not given here, Clonal phage of the Peptide-180 library) [Phage-2089] here.
0.0844

The reported numbers originate from patent US20260242478A1.
